Data provenance is patent US11613546B2.

# Tested on: pLai RLuc reporter virus
# assay.notes: HIV MT-4 serum shift antiviral reporter assay
# Type: cell-based
# experimental.parameters: read-out: RLUC CCM; cell culture media (RPMI, 10% FBS), 72 h, Renilla Glo
We begin with a simple list: items and their reported pEC50.
// pEC50 is dimensionless: -log10 of concentration (M)

Known pEC50 results, listed for orientation:
[
  {
    "compound": "C[C@@H]1CCC[C@H](C)N2CN1n1cc(C(=O)NCc3c(F)cc(F)cc3F)c(=O)c(O)c1C2=O [Example C21]",
    "experimental.value": 9.64
  },
  {
    "compound": "C[C@@H]1CCC[C@H](C)N2CN1n1cc(C(=O)NCc3c(F)cc(F)cc3F)c(=O)c(O)c1C2=O [Example C14]",
    "experimental.value": 9.15
  },
  {
    "compound": "C[C@H]1CC[C@H](C)N2CN1C(=O)c1c(O)c(=O)c(C(=O)NCc3c(F)cc(F)cc3F)cn12 [Example C28]",
    "experimental.value": 9.48
  }
]

## Input For the record C[C@H]1C/C=C\CN2CN1n1cc(C(=O)NCc3ccc(F)cc3F)c(=O)c(O)c1C2=O [Example C41] , what value of pEC50 is listed for pLai RLuc reporter virus?
## Output 9.15

## Input For the record C[C@H]1C=C[C@H](C)N2CN1C(=O)c1c(O)c(=O)c(C(=O)NCc3c(F)cc(F)cc3F)cn12 [Example C26] , what value of pEC50 is listed for pLai RLuc reporter virus?
## Output 9.20

## Input For the record C[C@@H]1CCC[C@H](C)N2CN1n1cc(C(=O)NCc3c(F)cc(F)cc3F)c(=O)c(O)c1C2=O [Example C8] , what value of pEC50 is listed for pLai RLuc reporter virus?
## Output 9.26

## Input For the record C[C@H]1CC[C@H](C)N2CN1C(=O)c1c(O)c(=O)c(C(=O)NCc3c(F)cc(F)cc3F)cn12 [Example C66] , what value of pEC50 is listed for pLai RLuc reporter virus?
## Output 9.30

## Input For the record C[C@H]1C/C=C\CN2CN1n1cc(C(=O)NCc3ccc(F)cc3F)c(=O)c(O)c1C2=O [Example C43] , what value of pEC50 is listed for pLai RLuc reporter virus?
## Output 8.77

## Input For the record C[C@@H]1C=C[C@@H](C)N2CN1C(=O)c1c(O)c(=O)c(C(=O)NCc3ccc(F)cc3F)cn12 [Example C69] , what value of pEC50 is listed for pLai RLuc reporter virus?
## Output 9.26

###

# Test system: pLai RLuc reporter virus
# assay.notes: HIV MT-4 serum shift antiviral reporter assay
# Format: cell-based
# experimental.parameters: Human immunodeficiency virus 1, 72 h, read-out: RLUC 50% HS (nM), HS/CCM: 50% human serum, 72 h, Renilla Glo
We begin with a simple list: items and their reported EC50.
Give the number; nM is assumed, so skip it.

Known EC50 results, listed for orientation:
[
  {
    "molecule": "C[C@H]1C=C[C@@H](CF)N2CN1C(=O)c1c(O)c(=O)c(C(=O)NCc3c(F)cc(F)cc3F)cn12 [Example C76]",
    "reported.endpoint": "EC50",
    "experimental.value": 265
  },
  {
    "molecule": "C[C@H]1CCC(C)(C)N2CN1n1cc(C(=O)NCc3ccc(F)cc3F)c(=O)c(O)c1C2=O [Example C95]",
    "reported.endpoint": "EC50",
    "experimental.value": 461
  },
  {
    "molecule": "C[C@@H]1C=C[C@H](CF)N2CN1n1cc(C(=O)NCc3c(F)cc(F)cc3F)c(=O)c(O)c1C2=O [Example C50]",
    "reported.endpoint": "EC50",
    "experimental.value": 850
  }
]

## Input Reported EC50, molecule COC[C@@H]1C=C[C@H](C)N2CN1n1cc(C(=O)NCc3c(F)cc(F)cc3F)c(=O)c(O)c1C2=O [Example C79] : ____
## Output 638
